target: T1, mFc tagged human SIRPα v1 ECD recombinant protein (human, UniProt P78324 31-373); experiment: competitive ELISA binning, mFc-SIRPα v1 ECD; competitor hu1H9G4
T1 construct: extracellular domain; Bought from Biointron; not shown: mouse IgG Fc (mFc) tag
T1 sequence (P78324 31-373): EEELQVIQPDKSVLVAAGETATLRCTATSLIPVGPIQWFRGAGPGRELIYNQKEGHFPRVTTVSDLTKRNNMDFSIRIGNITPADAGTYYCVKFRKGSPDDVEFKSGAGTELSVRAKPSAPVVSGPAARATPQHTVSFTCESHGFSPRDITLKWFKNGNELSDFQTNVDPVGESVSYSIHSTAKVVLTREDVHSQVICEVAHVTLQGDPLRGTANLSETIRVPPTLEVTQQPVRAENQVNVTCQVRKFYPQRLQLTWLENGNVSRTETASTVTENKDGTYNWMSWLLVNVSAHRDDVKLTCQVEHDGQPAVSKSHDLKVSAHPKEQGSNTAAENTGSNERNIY
Item-by-item account of % Competition
Answer format: numeric, % implied, no suffix.

Solved entries (count: 3):
[[record]]
binder = "hu1H9G4 (antibody, V domains shown) VH: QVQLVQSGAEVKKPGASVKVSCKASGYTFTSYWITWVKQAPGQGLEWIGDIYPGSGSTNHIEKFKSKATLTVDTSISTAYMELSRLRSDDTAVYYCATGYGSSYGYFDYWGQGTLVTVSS VL: DIQMTQSPSSLSASVGDRVTITCRASENIYSYLAWYQQKPGKAPKLLIYTAKTLAEGVPSRFSGSGSGTDFTLTISSLQPEDFATYYCQHQYGPPFTFGQGTKLELK"
observable = "% Competition"
unitstring = "%"
measurednumber = 90.5

[[record]]
binder = "042c (antibody, V domains shown, also called chimeric antibody 042c) VH: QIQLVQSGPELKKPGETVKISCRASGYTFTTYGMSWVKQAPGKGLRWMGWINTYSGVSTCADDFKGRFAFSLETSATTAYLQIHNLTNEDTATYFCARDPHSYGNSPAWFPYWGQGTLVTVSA VL: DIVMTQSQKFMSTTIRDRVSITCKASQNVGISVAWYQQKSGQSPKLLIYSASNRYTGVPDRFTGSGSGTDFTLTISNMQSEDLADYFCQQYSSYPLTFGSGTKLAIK"
observable = "% Competition"
unitstring = "%"
measurednumber = 29.8

[[record]]
binder = "073c (antibody, V domains shown, also called chimeric antibody 073c) VH: QIQLVQSGPELKKPGETVKISCKASGYTFTTYGMSWVKQAPGKGLKWMVWINTYSGVPTYADDFKGRFAFSLETSASTSYLQINNLKNEDTATYFCARDPHYYGSSPAWFVYWGQGTLVTVSA VL: DIVMTQSQKFMSTTIGDRVSITCEASQIVGIAVAWYQQKPGQSPKLLIYSASNRYTGVPDRFTGSGSGTDFTLTISNMQSEDLANYFCQQYSAYPFTFGSGTKLEVK"
observable = "% Competition"
unitstring = "%"
measurednumber = 37.7


# evaluate next
[Q] Look up and state reported % Competition for 025c (antibody, V domains shown, also called chimeric antibody 025c; parental antibody of 025c) VH: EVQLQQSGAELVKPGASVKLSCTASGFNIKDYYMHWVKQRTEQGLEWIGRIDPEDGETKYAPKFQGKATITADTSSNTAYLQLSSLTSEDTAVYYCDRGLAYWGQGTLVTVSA VL: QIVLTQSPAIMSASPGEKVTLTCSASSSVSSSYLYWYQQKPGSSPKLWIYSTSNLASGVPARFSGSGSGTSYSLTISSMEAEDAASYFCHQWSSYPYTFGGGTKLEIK
[A] 15.3
